# System: L1210
# Assay text: In vitro inhibition of L1210 murine leukemia (Drug sensitivity was determined by counting surviving cells after 48 hr of continuous exposure to at least 4 conc. of drug)
# Format: functional, cell-based
# Condition description: Mus musculus, L1210, 48 h
Catalogue of IC50 readings, one per entry.
Readout label: IC50 (µg/mL)

{"columns": ["Structure smiles", "Readout label", "Unit info", "Recorded number"],
 "data": [
  ["C=C(Br)C(=O)Nc1nc(C(=O)Nc2cc(C(=O)Nc3cc(C(=O)NCCC(=N)N)n(C)c3)n(C)c2)cs1.Cl", "IC50", "µg/mL", 23.8],
  ["Cl.Cn1cc(NC(=O)c2csc(NC(=O)c3ccc(N(CCCl)CCCl)cc3)n2)cc1C(=O)Nc1cc(C(=O)NCCC(=N)N)n(C)n1", "IC50", "µg/mL", 7.2],
  ["Cl.Cn1cc(NC(=O)c2cc(NC(=O)c3csc(NC(=O)c4ccc(N(CCCl)CCCl)cc4)n3)cn2C)cc1C(=O)NCCC(=N)N", "IC50", "µg/mL", 32.5],
  ["Cl.Cn1cc(NC(=O)c2ccc(N(CCCl)CCCl)cc2)cc1C(=O)Nc1cc(C(=O)Nc2cc(C(=O)NCCC(=N)N)n(C)n2)n(C)c1", "IC50", "µg/mL", 0.03],
  ["Cl.Cn1cc(NC(=O)c2ccc(N(CCCl)CCCl)cc2)cc1C(=O)Nc1cc(C(=O)Nc2cc(C(=O)NCCC(=N)N)n(C)n2)n(C)n1", "IC50", "µg/mL", 0.11],
  ["Cl.Cn1cc(NC(=O)c2cc(NC(=O)c3cc(NC(=O)c4ccc(N(CCCl)CCCl)cc4)nn3C)cn2C)cc1C(=O)NCCC(=N)N", "IC50", "µg/mL", 1.39],
  ["C=C(Br)C(=O)Nc1cc(C(=O)Nc2cc(C(=O)Nc3cc(C(=O)NCCC(=N)N)n(C)c3)n(C)c2)n(C)n1.Cl", "IC50", "µg/mL", 0.15]
]}
